B1: tRNA (parent)
chain: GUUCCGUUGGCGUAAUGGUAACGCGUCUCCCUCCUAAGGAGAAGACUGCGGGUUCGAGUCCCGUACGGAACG

- Variants of: B1
- test: yeast fitness relative to wild type (ratio to wild type); higher = fitter; tRNA-Arg(CCU), competitive growth, 37 C, YPD
Variants at the floor of the assay were thinned out.
measured-attribute: yeast fitness

• GUUCCGUUAGCGUAAUGGUAACGCGUCUCCCUCCUGAGGAGAAGACUGCGGGUUCGAGUCCCGUACCGAACG [G9A A36G G67C] = 0.664
• GUUCCGUUGGCGUAAUGGUAACGCGUCUCGGUCCUAACGAGAAGAGUGCGGGUUCGAGUCCCGUACGGCACG [C30G C31G G38C C46G A69C] = 0.572
• GUACCGUUGGCGUAAUGGUAACGUGUCUCCCUCCUAAGGAGAAGACUGCGGGAUCGAGUCCCGUACGGAACG [U3A C24U U53A] = 0.548
